# Test system: K562 (chronic myelogenous leukemia, CML)
# ASSAY_PROCEDURE: CellTiter-Glo (CTG) cytotoxicity assay, K562
# Assay type: cell-based
# MEASUREMENT_CONTEXT: Homo sapiens, 48 h, read-out: Growth inhibition 50% (GI50) K562
PROPERTY: GI50

Answered cases to consult:
• C=C1C[C@@]23C[C@@H]1CC[C@]2(O)[C@@]1(C)CC[C@H](O)C(C)(C)[C@@H]1[C@H](O)C3 = > 30 µM
• COc1cccc2c1C(=O)c1c(O)c3c(c(O)c1C2=O)C[C@@](O)(C(=O)CO)C[C@@H]3O[C@H]1C[C@H](N)[C@H](O)[C@H](C)O1 [Doxorubicin, reference compound] = 0.094 µM
• C=C1C[C@@]23C[C@@H]1CC[C@]2(O)[C@@]1(C)[C@@H](O)CCC(C)(C)[C@@H]1[C@H](O)C3 = > 30 µM

Q: # input compound: "C=C1C[C@@]23C[C@@H]1CC[C@]2(O)[C@@]1(C)CCC[C@@](C)(CO)[C@@H]1[C@H](O)C3" ; wanted: its GI50
A: > 30 µM

Q: # input compound: C=C1C2CCC3(O)C4(C)CCCC(C)(CO)C4C(O)CC3(C2)C1O (stereo not drawn) ; wanted: its GI50
A: 19.6 µM

Q: # input compound: "C=C1C[C@@]23C[C@@H]1CC[C@]2(O)[C@@]1(C)CCCC(C)(C)[C@@H]1[C@H](O)C3" ; wanted: its GI50
A: 11.9 µM

Hey, just so you know, these numbers are from paper PMC11857663.
